Origin of values: PubChem BioAssay AID328

Some molecules, each annotated with its measured T/C.
# System: BDF1 mice, P388 leukemia ip, median survival T/C
# Protocol: NCI In Vivo Anticancer Drug Screen. Data for tumor model P388 Leukemia (intraperitoneal) in B6D2F1 (BDF1) mice
# Details: endpoint: median survival time; dose: 200.0 mg/kg/injection; schedule: Q01DX009 (ip); vehicle: other; higher = longer survival
Toxic doses and inconclusive results are not listed.

// solved cases for T/C follow
Molecule	Measured on	T/C
CCOC(=O)c1c(C)nc(C)c(C(=O)OCC)c1-c1cccnc1	BDF1 mice, P388 leukemia ip, median survival T/C	112 % of control
O=S(c1ccccc1)C1Cc2ccccc2C1Cl (stereo not given)	BDF1 mice, P388 leukemia ip, median survival T/C	115 % of control
Cc1ccc(S(=O)CC(Cl)c2ccccc2)cc1 (stereo not given)	BDF1 mice, P388 leukemia ip, median survival T/C	100 % of control
CC(=O)ON(CC(=O)OCc1ccccc1)C(C)=O	BDF1 mice, P388 leukemia ip, median survival T/C	100 % of control

Shift focus to the following entry.
Please provide the recorded T/C for CCCCCCCC(=O)NN , tested on BDF1 mice, P388 leukemia ip, median survival T/C.
97 % of control
